test system: HOP-92 NSCLC; test: NCI tumour cell line growth inhibition, 48 h
Attribute measured: TGI

* CC(C)(C)c1cc(C(P(=O)(c2ccccc2)c2ccccc2)P(=O)(c2ccccc2)c2ccccc2)cc(C(C)(C)C)c1O | 5.65 µM
* O=Cc1ccc2c(c1)CC1(C2)Cc2ccc3c(c2C1)CCC3 (stereo not drawn) | > 48.3 µM
* Cn1c(=O)c2c(nc(Nc3cc(=O)[nH]c(=O)[nH]3)n2Cc2ccccc2)n(C)c1=O | > 100 µM
* NC(CCCCP(=O)(O)O)C(=O)O (stereo not drawn) | > 100 µM
* C=C(F)C(=O)N1CCN(c2nc(OC[C@@H]3CCCN3C)nc3c2CCN(c2cccc4cccc(Cl)c24)C3)C[C@@H]1CC#N | 1.85 µM
* O=C1CCCC/C(=C/c2ccccc2)N1 | > 100 µM
* O=C(NCCCCCCNC(=O)c1cccc2ccccc12)Nc1cccc2ccccc12 | > 100 µM
* C=C1C[C@@H]2O[C@H]3[C@H]4[C@@H](C[C@@H](C)[C@@H](OC(C)=O)[C@H]42)[C@@H](C)CO[C@@]3(C)[C@H](OC(C)=O)C[C@H]1O | > 100 µM
* CC(C)c1ccc(Nc2ccc3c(OCCCN4CCN(C)CC4)cccc3n2)cc1 | 27.4 µM
* O=C(O)/C=N\Nc1nc2ccccc2[nH]1 | > 100 µM
* COc1cc(Nc2cn[nH]c2-c2ccc(Cl)cc2)cc(OC)c1OC | 33.4 µM
* CCOC(=O)Oc1c(OC)cc(C(=O)NC2CCc3cc(OC)c(OC)c(OC)c3-c3ccc(SC)c(=O)cc32)cc1OC (stereo not drawn) | 0.871 µM
* COc1cc(C2c3cc4c(cc3OC(N3CCCC3)C2C)OCO4)cc(OC)c1O (stereo not drawn) | > 78.5 µM
* O=c1nc2occc2cn1C1CC(O)C(CO)O1 (stereo not drawn) | > 100 µM
* Cc1ccc(SC(C)/C=C/NNC2=NC(c3ccccc3)C(c3ccccc3)=NN2)cc1 (stereo not drawn) | 66.1 µM
* Cc1nnc(S(=O)(=O)c2ccc(N=Nc3c(N)nc(N)nc3N)cc2)s1 | > 100 µM
* Cc1ccc(S(=O)(=O)Oc2cc(-c3ccccc3)nc3ccccc23)cc1 | 22.9 µM
* COc1ccc(N(C)c2ncnc3occ(C)c23)cc1 | > 100 µM
* O=C1OC(c2ccccc2)=N/C1=C/C=C/c1ccco1 | > 100 µM
* CCN1CCN(c2ccc(Nc3cc(N(C)C(=O)Nc4c(Cl)c(OC)cc(OC)c4Cl)ncn3)cc2)CC1 | 27.3 µM
* CNn1c(-c2ccccc2)n[nH]c1=O | > 100 µM
* O=C1c2ccccc2C(=O)C1(Cl)C1(S(=O)(=O)O)c2ccccc2-c2ccccc21 | > 100 µM
* O=C1NC(=Nc2ccccc2)S/C1=C\c1ccc2ncccc2c1 | > 25 µM
